# credit: patent US20110123544A1

For each record, write down the corresponding koff.
EXPERIMENTAL_SYSTEM: T1, recombinant human IL-12 (rhIL-12) (human, UniProt P29459 23-219; P29460 23-328)
T1 construct: disulfide-linked p35/p40 heterodimer (p70); also called rec. human IL12; IL-12 p70
T1 sequence (looked up) 1: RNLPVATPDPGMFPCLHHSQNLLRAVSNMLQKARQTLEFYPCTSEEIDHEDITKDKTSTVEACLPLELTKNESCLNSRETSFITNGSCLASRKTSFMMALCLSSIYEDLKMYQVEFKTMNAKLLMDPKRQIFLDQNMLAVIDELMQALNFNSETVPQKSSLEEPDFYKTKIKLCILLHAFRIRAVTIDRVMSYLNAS
T1 sequence (looked up) 2: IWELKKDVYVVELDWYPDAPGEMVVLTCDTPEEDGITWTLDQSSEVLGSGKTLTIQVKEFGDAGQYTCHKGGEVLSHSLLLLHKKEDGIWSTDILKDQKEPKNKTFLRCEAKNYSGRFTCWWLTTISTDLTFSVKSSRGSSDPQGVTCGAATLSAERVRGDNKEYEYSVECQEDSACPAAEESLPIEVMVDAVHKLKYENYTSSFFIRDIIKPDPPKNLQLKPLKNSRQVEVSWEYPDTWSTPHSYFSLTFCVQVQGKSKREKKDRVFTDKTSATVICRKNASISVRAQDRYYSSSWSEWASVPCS
ASSAY_EXPLANATION: BIAcore (SPR) off-rate on IL-12 chip
Give bare numbers, in s⁻¹.

Record excerpt, results attached:
- BINDER: "Y61 (scFv, V domains shown, scFv; also called Y61 scFv) VH: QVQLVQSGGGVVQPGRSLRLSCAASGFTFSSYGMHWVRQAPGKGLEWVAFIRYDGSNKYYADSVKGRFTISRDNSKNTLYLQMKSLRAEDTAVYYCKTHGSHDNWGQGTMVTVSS VL: SYVLTQPPSVSGTPGQRVTISCSGGRSWIGSNTVKWYQQLPGTAPKLLIYGNDQRPSGVPDRFSGSKSGTSASLAITGVQAEDEADYYCQSYDRGTHPALLFGTGTKVTVLG"
  MEASUREMENT_UNITS: "s⁻¹"
  koff: 0.000275
- BINDER: "99-H4 (scFv, V domains shown) VH: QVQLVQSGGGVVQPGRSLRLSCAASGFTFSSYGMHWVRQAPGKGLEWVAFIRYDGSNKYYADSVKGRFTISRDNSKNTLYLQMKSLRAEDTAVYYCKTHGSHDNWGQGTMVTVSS VL: SYVLTQPPSVSGTPGQRVTISCSGGRSNIGSNTVKWYQQLPGTAPKLLIYGNDQRPSGVPDRFSGSKSGTSASLAITGVQAEDEADYYCQSYDSRFTGSRVFGTGTKVTVLG"
  MEASUREMENT_UNITS: "s⁻¹"
  koff: 0.0048

Now look at this one.
# koff of 99-F6 (scFv, V domains shown) VH: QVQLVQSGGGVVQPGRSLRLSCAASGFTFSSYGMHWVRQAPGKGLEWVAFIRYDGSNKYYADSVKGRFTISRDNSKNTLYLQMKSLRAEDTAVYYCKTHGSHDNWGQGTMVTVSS VL: SYVLTQPPSVSGTPGQRVTISCSGGRSNIGSNTVKWYQQLPGTAPKLLIYGNDQRPSGVPDRFSGSKSGTSASLAITGVQAEDEADYYCQSYDSGSTGSRVFGTGTKVTVLG = 0.0049
